# Tested on: Human papillomavirus type 1a E7 protein (residues 1-88)
# TEST PROTOCOL: HPV1a E7 small-molecule binders, primary screen, biochemical, small-molecule microarray, residues 1-88, 635 nm (AID 1129)
# TEST PARAMETERS: small-molecule microarray binding, fluorescence 635 nm; higher = more signal
Classify by measured composite z-score: yes (1) if it is equal to or exceeds 1, no (0) if it is smaller.

Solved cases below.
MOLECULE	DISCRETE LABEL
CC(C)c1ccc(NN2C(C(O)c3ccc4c(c3)OCO4)C=CC3C(=O)N(c4ccccc4)C(=O)C32)cc1 (stereo not drawn)	yes (1)
O[C@@H](Cc1ccccc1)[C@H]1C2C=CCCC(c3ccccc3)=C2CN1Cc1cccc(Cl)c1 (stereo partly drawn)	yes (1)
C=C(/C(=C/C[C@H](OC(=O)c1ccncc1)c1ccc(OCCO)cc1)c1cnc2ccccc2c1)C(C)C	yes (1)

Could you verify whether the entry `CC(CCN1CCc2nc(-c3ccccc3)c(-c3ccccc3)cc2C1)=NO[C@@H](C)c1cn([C@H](CO)Cc2ccccc2)nn1` shows composite z-score of no less than 1?
no (0)

Could you verify whether the entry `CO[C@@H]1COC(=O)[C@H](C)NC(=O)[C@@H](C)COC(=O)CCC[C@H]1C` shows composite z-score of no less than 1?
no (0)

Could you verify whether the entry `CCOC(=O)NN=C1C[C@@H](O)[C@@H](O)[C@@H]2[C@@H]3C(=O)N(CC)C(=O)[C@@H]3CC[C@@H]12` shows composite z-score of no less than 1?
no (0)
